- Protocol details: Single ascending dose and food-effect pharmacokinetics of naringin tablets in healthy humans
- Type: in vivo, human
- Condition summary: both sexes, human, plasma, po, 320 mg, naringin 320 mg p.o. single dose
Assay endpoint: half-life

# Smiles repr, Assay endpoint, Result
measured = [
    ("C[C@@H]1O[C@@H](O[C@H]2[C@H](Oc3cc(O)c4c(c3)O[C@H](c3ccc(O)cc3)CC4=O)O[C@H](CO)[C@@H](O)[C@@H]2O)[C@H](O)[C@H](O)[C@H]1O", "half-life", "2.51 h"),
]

====

- Protocol details: Single ascending dose and food-effect pharmacokinetics of naringin tablets in healthy humans
- Type: in vivo, human
- Condition summary: both sexes, human, plasma, po, 320 mg, naringin 320 mg p.o. single dose

# Molecule, Tmax [h]
records = [
    ("C[C@@H]1O[C@@H](O[C@H]2[C@H](Oc3cc(O)c4c(c3)O[C@H](c3ccc(O)cc3)CC4=O)O[C@H](CO)[C@@H](O)[C@@H]2O)[C@H](O)[C@H](O)[C@H]1O [naringin, Naringin]", 1.66),
]

====

- Protocol details: Single-dose pharmacokinetics in rats (plasma, UHPLC/MS/MS)
- Format: in vivo, Sprague Dawley rats
- Condition summary: both sexes, Sprague Dawley, rat, plasma, iv, 42 mg/kg; read-out: MRT0-t
MRT last for assorted compounds

# Compound, Result unit, MRT last
data = [
    ("O=C1C[C@@H](c2ccc(O)cc2)Oc2cc(O)cc(O)c21 [naringenin, Naringenin]", "h", 3.36),
    ("C[C@@H]1O[C@@H](O[C@H]2[C@H](Oc3cc(O)c4c(c3)O[C@H](c3ccc(O)cc3)CC4=O)O[C@H](CO)[C@@H](O)[C@@H]2O)[C@H](O)[C@H](O)[C@H]1O [naringin, Naringin]", "h", 0.496),
]

====

- Protocol details: Single ascending dose and food-effect pharmacokinetics of naringin tablets in healthy humans
- Format: in vivo, human
- Condition summary: female, human, plasma, po, 160 mg, naringin 160 mg p.o. single dose, high-fat diet group, human, female

# Smiles repr, half-life [h]
measured = [
    ("C[C@@H]1O[C@@H](O[C@H]2[C@H](Oc3cc(O)c4c(c3)O[C@H](c3ccc(O)cc3)CC4=O)O[C@H](CO)[C@@H](O)[C@@H]2O)[C@H](O)[C@H](O)[C@H]1O", 2.54),
]

====

- Protocol details: Single-dose pharmacokinetics in dogs (plasma, UHPLC/MS/MS)
- Format: in vivo, Beagle dogs
- Condition summary: male, Beagle, dog, plasma, po, 3.1 mg/kg
Assay endpoint: Tmax (h)

# Smiles repr, Numeric value
rows = [
    ("C[C@@H]1O[C@@H](O[C@H]2[C@H](Oc3cc(O)c4c(c3)O[C@H](c3ccc(O)cc3)CC4=O)O[C@H](CO)[C@@H](O)[C@@H]2O)[C@H](O)[C@H](O)[C@H]1O", 1.5),
]

====

- Protocol details: Single-dose pharmacokinetics in rats (plasma, UHPLC/MS/MS)
- Format: in vivo, Sprague Dawley rats
- Condition summary: female, Sprague Dawley, rat, plasma, po, 42 mg/kg

# Smiles repr, Result unit, Tmax
measured = [
    ("C[C@@H]1O[C@@H](O[C@H]2[C@H](Oc3cc(O)c4c(c3)O[C@H](c3ccc(O)cc3)CC4=O)O[C@H](CO)[C@@H](O)[C@@H]2O)[C@H](O)[C@H](O)[C@H]1O", "h", 1.7),
]
